protocol summary: Half life in 8 hrs fasted healthy human plasma at 200 mg, po administered as single dose of suspension
Assay type: ADME, organism-based

# compound string, half-life (h)
measured = [
    ("CC[C@H]1OC(=O)[C@H](C)C(=O)[C@H](C)[C@@H](O[C@@H]2O[C@H](C)C[C@H](N(C)C)[C@H]2O)[C@@]2(C)C[C@@H](C)/C(=N\\C(C)=O)[C@H](C)[C@@H](OC/C(=N\\OCc3ccc(-n4cccn4)nc3)CO2)[C@]1(C)O", 16.8),
]

* * *

protocol summary: Tmax in 8 hrs fasted healthy human plasma at 200 mg, po administered as single dose of suspension
Type: ADME, organism-based
value kind: Tmax (h)

# compound string, value kind, reported value
data = [
    ("CC[C@H]1OC(=O)[C@H](C)C(=O)[C@H](C)[C@@H](O[C@@H]2O[C@H](C)C[C@H](N(C)C)[C@H]2O)[C@@]2(C)C[C@@H](C)/C(=N\\C(C)=O)[C@H](C)[C@@H](OC/C(=N\\OCc3ccc(-n4cccn4)nc3)CO2)[C@]1(C)O", "Tmax", 3.5),
]

* * *

System: Homo sapiens
protocol summary: AUC (0 to last) in high-fat fed healthy human plasma assessed as EDP-420 9-keto level at 200 mg, po administered as single dose of two-100 mg capsules
Type: ADME, organism-based
Parameters: dose 200 mg, route oral, time 0 - last
condition parameters: in vivo
value kind: AUC (ng·h/mL)

# compound string, reported value
data = [
    ("CC[C@H]1OC(=O)[C@H](C)C(=O)[C@H](C)[C@@H](O[C@@H]2O[C@H](C)C[C@H](N(C)C)[C@H]2O)[C@@]2(C)C[C@@H](C)C(=O)[C@H](C)[C@@H](OC/C(=N\\OCc3ccc(-n4cccn4)nc3)CO2)[C@]1(C)O", 1220),
]
